Values were extracted from PubChem BioAssay AID2060499.

System: 777334-354-R2-J4-PDC tumor spheroids with HUVEC/MSC, viability
Assay: Anticancer human tumor 777334-354-R2-J4-PDC patient-derived pancreatic adenocarcinoma cell line growth inhibition [GQUAD]
Settings: second compound 10 µM; first compound 0.0316 µM; hits give low values
Reported Property: viability, T/C (%)
Number in %, nothing else.

Example cases with answers are listed next.
Compound: O=c1[nH]cc(F)c(=O)[nH]1 + Cc1cnc(CNC(=O)c2c(=O)c3ccc(N4CCCN(C)CC4)nc3n3c2sc2ccccc23)cn1
Readout Unit: %
viability, T/C: 57.7
//
Compound: CC[C@@]1(O)C(=O)OCc2c1cc1n(c2=O)Cc2cc3c(CN(C)C)c(O)ccc3nc2-1 + CN(C)c1ccc(Nc2c3ccc(NC(=O)CCN4CCCC4)cc3nc3cc(NC(=O)CCN4CCCC4)ccc23)cc1
Readout Unit: %
viability, T/C: 73.4

Attention now turns to another entry.
QUERY: Endpoint output: viability, T/C of O=c1[nH]cc(F)c(=O)[nH]1 + Cc1[nH]c2ccc(F)cc2c1-c1nc2c3cccnc3c3ncccc3c2[nH]1 . Value?
RESULT: 29.6

* * *

Measured viability, T/C accompanies every entry in the list below.
Tested on: 777334-354-R2-J4-PDC tumor spheroids with HUVEC/MSC, viability
Test: Anticancer human tumor 777334-354-R2-J4-PDC cell line growth inhibition [GQUAD];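 note: spheroids exposed to compounds for 7 days before readout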
Conditions: second compound 10 µM; first compound 3.16 µM; hits give low values
Enter your answer as a number in %; do not include the unit.

Please review the entries below; each comes with its answer.
Compound: CC1COCCN1c1cc(C2(S(C)(=N)=O)CC2)nc(-c2ccnc3[nH]ccc23)n1 (stereo not drawn) + Cc1[nH]c2ccc(F)cc2c1-c1nc2c3cccnc3c3ncccc3c2[nH]1
Reported Property: viability, T/C
Observed Value: 20.7

Compound: O=c1[nH]cc(F)c(=O)[nH]1 + Cc1cnc(CNC(=O)c2c(=O)c3ccc(N4CCCN(C)CC4)nc3n3c2sc2ccccc23)cn1
Reported Property: viability, T/C
Observed Value: 50.8

QUERY: Provide value of viability, T/C for this record tested with 777334-354-R2-J4-PDC tumor spheroids with HUVEC/MSC, viability: O=c1[nH]cc(F)c(=O)[nH]1 + CN(C)c1ccc(Nc2c3ccc(NC(=O)CCN4CCCC4)cc3nc3cc(NC(=O)CCN4CCCC4)ccc23)cc1
RESULT: 60.9

* * *

Tested on: 777334-354-R2-J4-PDC tumor spheroids with HUVEC/MSC, viability
Assay: Anticancer human tumor 777334-354-R2-J4-PDC cell line growth inhibition [GQUAD];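 note: spheroids exposed to compounds for 7 days before readout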
Conditions: second compound 0.316 µM; first compound 1 µM; hits give low values
Recorded viability, T/C, one value per entry.
Give the value in % but do not write % after it.

QUERY: Given the entry CC1COCCN1c1cc(C2(S(C)(=N)=O)CC2)nc(-c2ccnc3[nH]ccc23)n1 (stereo unspecified) + Cc1[nH]c2ccc(F)cc2c1-c1nc2c3cccnc3c3ncccc3c2[nH]1 , report its measured viability, T/C.
RESULT: 96.2

QUERY: Can you share its viability, T/C? I mean this molecule: O=c1[nH]cc(F)c(=O)[nH]1 + Cc1[nH]c2ccc(F)cc2c1-c1nc2c3cccnc3c3ncccc3c2[nH]1
RESULT: 76.8

QUERY: For the molecule O=C(NO)c1cnc(N2CCN(S(=O)(=O)c3ccc4ccccc4c3)CC2)nc1 + Cc1[nH]c2ccc(F)cc2c1-c1nc2c3cccnc3c3ncccc3c2[nH]1 , what viability, T/C is on record?
RESULT: 67.1
